# target-or-system: SB10-H19Y (synthetic Sleeping Beauty transposon, H19Y)
# test-details: MST; Full-length MST: 50 mM Tris pH 7.5, 5 mM MgCl2, 300 mM NaCl, 2% glycerol, 50 mM Arg-Glu, 1 mM TCEP, 0.1% Triton X-100, 0.1 mg/ml BSA, 30 nM Cy5-DNA, room temp
# details: protein: recombinant; tags: Ni-NTA purified; label: 5' Cy5 on forward strand (MST)
property-label: Kd (nM)
Please give a number only; it is taken to be in nM.

Worked set:
>>> df
                                     binder  assay_value
0  Lo (dsDNA) DNA 1: CAGTTGAAGTCGGAAGTTTACATACACTTAAG DNA 2: CTTAAGTGTATGTAAACTTCCGACTTCAACTG         11.6
1  Li (dsDNA) DNA 1: TCCAGTGGGTCAGAAGTTTACATACACTAAGT DNA 2: ACTTAGTGTATGTAAACTTCTGACCCACTGGA         10.2

For the binder DR-core (dsDNA) DNA 1: TCGGAAGTTTACATACAC DNA 2: GTGTATGTAAACTTCCGA , what Kd is on record?
31.1

Sourced from paper PMC11754664
